# assay: Bioavailability in Sprague-Dawley rat plasma at 10 mg/kg, IG measured at 10 to 1440 mins by LC-MS/MS analysis
# Type: ADME, organism-based
# stated.conditions: po, time 10-1440 min
quantity: bioavailability

1. CC1CCCCN1CCCOc1cc2c3c(nccc3c1)-c1ccccc1C2=O (stereo unspecified) ... 55.5%

----------
# assay: in vitro
# stated.conditions: PAMPA
A collection of compounds and their measured Papp
quantity: Papp (×10⁻⁶ cm/s)

1) Clc1cccc(Cl)c1N=C1NCCN1 [CLONIDINE] ... 5.7
2) CC1CCCCN1CCCOc1cc2c3c(nccc3c1)-c1ccccc1C2=O (stereo not drawn) ... 16.6
3) CCn1cc(C(=O)O)c(=O)c2cc(F)c(N3CCNC(C)C3)c(F)c21 (stereo not drawn) [LOMEFLOXACIN] ... 0.9
